# systemUnderTest: Aspartate--tRNA(Asp/Asn) ligase (Mycobacterium tuberculosis (strain ATCC 25618 / H37Rv)) (UniProt P9WFW3)
# Sequence (P9WFW3 whole entry): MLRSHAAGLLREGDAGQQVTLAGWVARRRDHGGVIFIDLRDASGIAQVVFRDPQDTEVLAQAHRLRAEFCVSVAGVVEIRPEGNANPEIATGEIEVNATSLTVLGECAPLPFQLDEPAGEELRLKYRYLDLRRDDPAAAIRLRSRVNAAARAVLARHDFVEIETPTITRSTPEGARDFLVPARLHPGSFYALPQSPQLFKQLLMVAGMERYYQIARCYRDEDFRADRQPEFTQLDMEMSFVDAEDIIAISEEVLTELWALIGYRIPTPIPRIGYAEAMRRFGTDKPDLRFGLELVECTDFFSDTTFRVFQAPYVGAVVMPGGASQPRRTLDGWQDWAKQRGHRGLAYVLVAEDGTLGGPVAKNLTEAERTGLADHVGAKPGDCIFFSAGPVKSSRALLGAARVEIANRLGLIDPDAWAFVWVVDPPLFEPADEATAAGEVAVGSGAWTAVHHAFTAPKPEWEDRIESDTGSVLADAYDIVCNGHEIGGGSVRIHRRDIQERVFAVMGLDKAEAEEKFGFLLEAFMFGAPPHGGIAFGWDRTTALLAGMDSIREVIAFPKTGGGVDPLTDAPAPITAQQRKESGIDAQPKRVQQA
# assayComment: Assay for Asp RNA synthetase-1 from Mycobacterium tuberculosis
# Type: functional
# Parameters: scale not given: in the data most compounds retested in dose-response had high values
# conditionContext: 30 µM

{"compound": "Fc1ccc(OCc2noc(CN3CCc4cncnc4C3)n2)cc1", "Percent Effect / %": -0.7}
{"compound": "Cc1cc(C)n(CC2CCCN2C(=O)c2cc[nH]n2)n1 (stereo unspecified)", "Percent Effect / %": -3.22}
{"compound": "CN1CCN(C(=O)c2cncc(CC3CCCN(C)C3)c2)CC1 (stereo unspecified)", "Percent Effect / %": -1.68}
{"compound": "COC(=O)c1ccc(N2CCN(C(=O)c3cnn(C)c3)C(C)C2)cc1 (stereo unspecified)", "Percent Effect / %": 0.343}
{"compound": "COCC1CC2(CCN(C(=O)c3cccn3C)CC2)CN1C(C)C (stereo unspecified)", "Percent Effect / %": -3.53}
{"compound": "Fc1cnc(N2CCCC3(CCN(Cc4ccsc4)C3)C2)nc1 (stereo unspecified)", "Percent Effect / %": 9.59}
{"compound": "COCCN1CCN(C(C)C(=O)Nc2ccnn2C(C)C)CC1 (stereo unspecified)", "Percent Effect / %": 0.69}
{"compound": "CCOc1nnc(CNC2CCCN(c3ccc(C)nn3)C2)s1 (stereo unspecified)", "Percent Effect / %": 9.48}
{"compound": "Cn1cc(C(=O)NC[C@@H]2OC[C@H]3CN(Cc4ccco4)CC[C@H]32)cn1", "Percent Effect / %": -0.729}
{"compound": "Cc1cccc(C(=O)N2C[C@@H]3OCCN(C(C)C)[C@@H]3C2)n1", "Percent Effect / %": 2.88}
{"compound": "Cn1cccc1C(=O)N1CCN(Cc2ccncc2)c2ncccc2C1", "Percent Effect / %": 0.0582}
